TESTED_TARGET: p38α (Homo sapiens)
Construct: p38 MAP Kinases are recombinant human full-length proteins with an amino-terminal GST fusion; GST (N)
Sequence (Q16539 whole entry, the tested form may be a part): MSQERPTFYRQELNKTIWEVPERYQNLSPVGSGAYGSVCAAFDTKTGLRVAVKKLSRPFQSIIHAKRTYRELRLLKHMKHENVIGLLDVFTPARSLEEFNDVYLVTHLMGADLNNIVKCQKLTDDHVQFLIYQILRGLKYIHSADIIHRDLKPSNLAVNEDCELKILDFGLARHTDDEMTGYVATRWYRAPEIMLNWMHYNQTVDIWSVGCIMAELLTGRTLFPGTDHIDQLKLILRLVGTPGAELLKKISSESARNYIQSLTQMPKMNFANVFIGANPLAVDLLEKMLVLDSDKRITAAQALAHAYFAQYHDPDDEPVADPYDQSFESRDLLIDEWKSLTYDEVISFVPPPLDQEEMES
ASSAY_COMMENT: p38 MAP Kinase assay: inhibition of ATF2 phosphorylation, ELISA
CONDITIONS_USED: ATF2 phosphorylation; read-out: [ENZ] P38 ALPHA, IC50, ELISA
EXPERIMENTAL_READOUT: IC50 (nM)
Answers are plain numbers, in nM.

- COMPOUND: "CNc1nccc(Oc2ccc(NC(=O)c3cc(F)cc(N4CCOCC4)c3)c3ccccc23)n1 [Compound B251]"
  IC50 [nM]: 134
- COMPOUND: "CC1CC(C)CN(c2nccc(Oc3ccc(NC(=O)c4cc(F)cc(N5CCOCC5)c4)c4ccccc34)n2)C1 (stereo not shown) [Compound B348]"
  IC50 [nM]: 166
- COMPOUND: "CC(C)(C)OC(=O)N1CCN(c2nccc(Oc3ccc(NC(=O)c4cc(F)cc(N5CCCCC5)c4)c4ccccc34)n2)CC1 [Compound B397]"
  IC50 [nM]: 109

Now consider the entry below.
[in] May I ask what IC50 has been recorded for CCN1CCC[C@H]1CNc1nccc(Oc2ccc(NC(=O)c3cc(F)cc(N4CCCCC4)c3)c3ccccc23)n1 [Compound B419] ?
[out] 3
